assay_text: Aqueous solubility of linalool (S0) from phase solubility study, ultrasound equilibrium
Format: physicochemical
run_conditions: aqueous buffer, thermodynamic from solid, pH 6.5, 25 °C, read-out: Recovery aqueous solubility (S0)
assay_metric: solubility at 60 min (mM)
Write down the numeric answer in mM and omit the unit.

Specify reported solubility at 60 min for the molecule shown: C=CC(C)(O)CCC=C(C)C (stereo not shown)
8.16

* * *

assay_text: Aqueous solubility of linalool (S0) from phase solubility study, ultrasound equilibrium
Format: physicochemical
run_conditions: pH 5.5, 25 °C, read-out: Recovery aqueous solubility (S0)
Protocol: The study of linalool solubility in the presence of CDs was carried out according to the method described by Higuchi and Connors in 1965 with slight modifications. […] Once filtered, the solutions were diluted with ethanol until reach ethanol 80% (solution:ethanol, 20:80, v:v) to quantify by gas chromatography-mass spectrometry (GC-MS) the linalool concentration in each solution. […]
assay_metric: solubility at 60 min (mM)
Numeric only. Scale: mM

Return value of solubility at 60 min for input C=CC(C)(O)CCC=C(C)C (stereo not shown) , no commentary.
9.05

* * *

assay_text: Aqueous solubility of linalool (S0) from phase solubility study, ultrasound equilibrium
Format: physicochemical
run_conditions: pH 8.5, 25 °C, read-out: Recovery aqueous solubility (S0)
assay_metric: solubility at 60 min (mM)
Give the value in mM but do not write mM after it.

# return recorded solubility at 60 min for input C=CC(C)(O)CCC=C(C)C (stereo not shown) [linalool, 3,7-dimethyl-1,6-octadien-3-ol]
9.33

* * *

assay_text: Phase solubility of linalool with HP-β-CDs by microwave irradiation (MWI)
Assay type: physicochemical
run_conditions: aqueous solution without HP-β-CDs (S0), 25 °C, water, thermodynamic from solid; MWI, pH 7.0
Experimental: The encapsulation of linalool with HP-β-CDs by using MWI was carried out following the method described by Hernández-Sánchez et al. in 2017 [32]. […] Once filtered, both groups of samples were diluted with ethanol (20:80, v:v) until the GC-MS quantification of the linalool. […] The quantification of linalool was carried out by using a Shimadzu GC-QP 2010 (Kyoto, Japan) gas chromatographer combined with a mass spectrometer. […]
assay_metric: solubility thermodynamic (µM)
# unit: µM | format: bare number

Give reported solubility thermodynamic value for C=CC(C)(O)CCC=C(C)C (stereo not shown) [linalool, 3,7-dimethyl-1,6-octadien-3-ol]
750
